B1: library; a variant is named by its letters at N, in order (parent)
chain: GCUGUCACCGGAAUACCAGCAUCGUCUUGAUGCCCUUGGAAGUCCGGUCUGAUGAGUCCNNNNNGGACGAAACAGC

Variants of: B1
Assay: FACS-Seq fitted mean relative fluorescence mCherry/BFP with ligand (log10 relative fluorescence); ligand concentration (+) FACS-Seq: 1 mM; higher = higher reporter protein expression
Conditions: HEK293T, ligand present: yes
# cutoff 0.9 applies to FACS-Seq fitted mean (log10); >= gives YES, < gives NO

Examples from the recorded data:
[Q] Identify whether the reported FACS-Seq fitted mean (log10) of the following variant is 0.9 or greater: GCUGUCACCGGAAUACCAGCAUCGUCUUGAUGCCCUUGGAAGUCCGGUCUGAUGAGUCCACUGAGGACGAAACAGC [ACUGA]
[A] NO

[Q] Decide: is the reported value of FACS-Seq fitted mean (log10) for GCUGUCACCGGAAUACCAGCAUCGUCUUGAUGCCCUUGGAAGUCCGGUCUGAUGAGUCCUACAUGGACGAAACAGC [UACAU] equal to or greater than 0.9?
[A] NO

[Q] # check: FACS-Seq fitted mean (log10) of GCUGUCACCGGAAUACCAGCAUCGUCUUGAUGCCCUUGGAAGUCCGGUCUGAUGAGUCCUAAAUGGACGAAACAGC [UAAAU] is greater than or equal to 0.9
[A] YES

[Q] For this variant, is measured FACS-Seq fitted mean (log10) 0.9 or higher? GCUGUCACCGGAAUACCAGCAUCGUCUUGAUGCCCUUGGAAGUCCGGUCUGAUGAGUCCGACAGGGACGAAACAGC [GACAG]
[A] NO

Others:
[Q] Kindly determine if FACS-Seq fitted mean (log10) recorded for GCUGUCACCGGAAUACCAGCAUCGUCUUGAUGCCCUUGGAAGUCCGGUCUGAUGAGUCCGAUCGGGACGAAACAGC [GAUCG] is above or exactly 0.9.
[A] YES

[Q] Is FACS-Seq fitted mean (log10) at least 0.9? Consider GCUGUCACCGGAAUACCAGCAUCGUCUUGAUGCCCUUGGAAGUCCGGUCUGAUGAGUCCAUAGCGGACGAAACAGC [AUAGC]
[A] YES

[Q] Hello, I need to know if GCUGUCACCGGAAUACCAGCAUCGUCUUGAUGCCCUUGGAAGUCCGGUCUGAUGAGUCCACAAAGGACGAAACAGC [ACAAA] has measured FACS-Seq fitted mean (log10) not below 0.9. Thanks!
[A] NO

[Q] Record GCUGUCACCGGAAUACCAGCAUCGUCUUGAUGCCCUUGGAAGUCCGGUCUGAUGAGUCCUGACAGGACGAAACAGC [UGACA] ; criterion: FACS-Seq fitted mean (log10) no lower than 0.9. Met?
[A] NO

[Q] Threshold query (FACS-Seq fitted mean (log10) >= 0.9) on GCUGUCACCGGAAUACCAGCAUCGUCUUGAUGCCCUUGGAAGUCCGGUCUGAUGAGUCCUAAGUGGACGAAACAGC [UAAGU]
[A] NO

[Q] Say whether GCUGUCACCGGAAUACCAGCAUCGUCUUGAUGCCCUUGGAAGUCCGGUCUGAUGAGUCCAGACAGGACGAAACAGC [AGACA] shows FACS-Seq fitted mean (log10) of 0.9 or more.
[A] NO

[Q] State whether the measured FACS-Seq fitted mean (log10) reaches 0.9, counting equality as reaching it, for GCUGUCACCGGAAUACCAGCAUCGUCUUGAUGCCCUUGGAAGUCCGGUCUGAUGAGUCCCUUACGGACGAAACAGC [CUUAC]
[A] NO

[Q] Reported FACS-Seq fitted mean (log10) at or above 0.9? GCUGUCACCGGAAUACCAGCAUCGUCUUGAUGCCCUUGGAAGUCCGGUCUGAUGAGUCCAUACGGGACGAAACAGC [AUACG]
[A] NO

[Q] Hi team, for GCUGUCACCGGAAUACCAGCAUCGUCUUGAUGCCCUUGGAAGUCCGGUCUGAUGAGUCCUAUCCGGACGAAACAGC [UAUCC] , is the recorded FACS-Seq fitted mean (log10) at or above 0.9?
[A] NO

[Q] Kindly determine if FACS-Seq fitted mean (log10) recorded for GCUGUCACCGGAAUACCAGCAUCGUCUUGAUGCCCUUGGAAGUCCGGUCUGAUGAGUCCAAUGCGGACGAAACAGC [AAUGC] is above or exactly 0.9.
[A] NO

[Q] Textbook exercise: given the entry GCUGUCACCGGAAUACCAGCAUCGUCUUGAUGCCCUUGGAAGUCCGGUCUGAUGAGUCCGUUUGGGACGAAACAGC [GUUUG] , state whether its FACS-Seq fitted mean (log10) is greater than or equal to 0.9.
[A] YES

[Q] Does the reported FACS-Seq fitted mean (log10) for GCUGUCACCGGAAUACCAGCAUCGUCUUGAUGCCCUUGGAAGUCCGGUCUGAUGAGUCCUGUCUGGACGAAACAGC [UGUCU] fall at or above the 0.9 mark?
[A] NO
